# Test system: MDA-MB-231/ADR (Adriamycin-resistant MDA-MB-231 cell line)
# ASSAY_NAME: MTT antiproliferative assay, MDA-MB-231/ADR
# Assay type: cell-based
# CONDITIONS_USED: Homo sapiens, 24 h treatment, mean ± S.D., n = 3
For each record, write down the corresponding log10(IC50).
Answers are given as log10 of IC50 in µM.

q: What does the record list as log10(IC50) for CON=C1C(=O)N(CCOC2O[C@@H]3O[C@@]4(C)CC[C@H]5[C@H](C)CC[C@@H]([C@H]2C)[C@@]35OO4)c2ccc(OC)cc21 (some centres unmarked) [Hybrid 4f] ?
a: 1.53

q: Which log10(IC50) value belongs to C[C@@H]1CC[C@H]2[C@@H](C)C(OCCN3C(=O)C(=O)c4cc(F)ccc43)O[C@@H]3O[C@@]4(C)CC[C@@H]1[C@]32OO4 (some centres unmarked) [Hybrid 4b] ?
a: 1.33

q: Record request: log10(IC50) value, item CO/N=C1/C(=O)N(CCOC2O[C@@H]3O[C@@]4(C)CC[C@H]5[C@H](C)CC[C@@H]([C@H]2C)[C@@]35OO4)c2ccc(F)cc21 (some centres unmarked) [Hybrid 4e]
a: 1.81

q: Value lookup for log10(IC50); key = COc1ccc2c(c1)C(=O)C(=O)N2CCOC1O[C@@H]2O[C@@]3(C)CC[C@H]4[C@H](C)CC[C@@H]([C@H]1C)[C@@]24OO3 (some centres unmarked) [Hybrid 4c]
a: 1.40

q: For CCON=C1C(=O)N(CCOC2O[C@@H]3O[C@@]4(C)CC[C@H]5[C@H](C)CC[C@@H]([C@H]2C)[C@@]35OO4)c2ccccc21 (some centres unmarked) [Hybrid 4g] , what is its reported log10(IC50)?
a: 1.45

q: Entry CON=C1C(=O)N(CCOC2O[C@@H]3O[C@@]4(C)CC[C@H]5[C@H](C)CC[C@@H]([C@H]2C)[C@@]35OO4)c2ccccc21 (some centres unmarked) [Hybrid 4d] has what log10(IC50)?
a: 1.29

q: Given the compound C[C@@H]1CC[C@H]2[C@@H](C)C(OCCN3C(=O)C(=O)c4ccccc43)O[C@@H]3O[C@@]4(C)CC[C@@H]1[C@]32OO4 (some centres unmarked) [Hybrid 4a] , what is its reported log10(IC50)?
a: 0.40

q: I am curious: what log10(IC50) value has been reported for C[C@H]1[C@@H](O)O[C@@H]2O[C@@]3(C)CC[C@H]4[C@H](C)CC[C@@H]1[C@@]24OO3 [DHA, dihydroartemisinin, reference compound] ?
a: 1.92

q: What log10(IC50) value was documented for this compound, CCON=C1C(=O)N(CCOC2O[C@@H]3O[C@@]4(C)CC[C@H]5[C@H](C)CC[C@@H]([C@H]2C)[C@@]35OO4)c2ccc(OC)cc21 (some centres unmarked) [Hybrid 4i] ?
a: 1.72

q: Any idea what its log10(IC50) is? The compound is CCON=C1C(=O)N(CCOC2O[C@@H]3O[C@@]4(C)CC[C@H]5[C@H](C)CC[C@@H]([C@H]2C)[C@@]35OO4)c2ccc(F)cc21 (some centres unmarked) [Hybrid 4h]
a: 1.78

----------
# Test system: MCF-7 breast cancer cell line
# ASSAY_NAME: MTT antiproliferative assay, MCF-7
# Format: cell-based, human
Give SI, selectivity index, IC50(MCF-10A)/IC50(MCF-7) for every item shown.

q: Param readout= SI, selectivity index, IC50(MCF-10A)/IC50(MCF-7); system= MCF-7 breast cancer cell line; entry= CCON=C1C(=O)N(CCOC2O[C@@H]3O[C@@]4(C)CC[C@H]5[C@H](C)CC[C@@H]([C@H]2C)[C@@]35OO4)c2ccc(F)cc21 (stereo partly drawn) [Hybrid 4h] ; returns value.
a: >1.4

q: State its SI, selectivity index, IC50(MCF-10A)/IC50(MCF-7) on MCF-7 breast cancer cell line: CO/N=C1/C(=O)N(CCOC2O[C@@H]3O[C@@]4(C)CC[C@H]5[C@H](C)CC[C@@H]([C@H]2C)[C@@]35OO4)c2ccc(F)cc21 (stereo partly drawn) [Hybrid 4e]
a: >1.3

q: Lab note: need SI, selectivity index, IC50(MCF-10A)/IC50(MCF-7) with MCF-7 breast cancer cell line for entry CCON=C1C(=O)N(CCOC2O[C@@H]3O[C@@]4(C)CC[C@H]5[C@H](C)CC[C@@H]([C@H]2C)[C@@]35OO4)c2ccccc21 (stereo partly drawn) [Hybrid 4g] , please look it up.
a: >2.0

q: SI, selectivity index, IC50(MCF-10A)/IC50(MCF-7) of C[C@H]1[C@@H](O)O[C@@H]2O[C@@]3(C)CC[C@H]4[C@H](C)CC[C@@H]1[C@@]24OO3 [DHA, dihydroartemisinin, reference compound] on MCF-7 breast cancer cell line?
a: >1.3

q: Can you look up SI, selectivity index, IC50(MCF-10A)/IC50(MCF-7) on MCF-7 breast cancer cell line for CON=C1C(=O)N(CCOC2O[C@@H]3O[C@@]4(C)CC[C@H]5[C@H](C)CC[C@@H]([C@H]2C)[C@@]35OO4)c2ccc(OC)cc21 (stereo partly drawn) [Hybrid 4f] ?
a: >2.6

q: Param readout = SI, selectivity index, IC50(MCF-10A)/IC50(MCF-7); param system = MCF-7 breast cancer cell line; param query = COc1cccc2c1C(=O)c1c(O)c3c(c(O)c1C2=O)C[C@@](O)(C(=O)CO)C[C@@H]3O[C@H]1C[C@H](N)[C@H](O)[C@H](C)O1 [ADR, Adriamycin, reference compound] ; response: value
a: 3.6

q: Missing value: SI, selectivity index, IC50(MCF-10A)/IC50(MCF-7), MCF-7 breast cancer cell line, entry C[C@@H]1CC[C@H]2[C@@H](C)C(=O)O[C@@H]3O[C@@]4(C)CC[C@@H]1[C@]32OO4 [ART, artemisinin] . Fill in?
a: >1.1

q: Request body: readout SI, selectivity index, IC50(MCF-10A)/IC50(MCF-7), system MCF-7 breast cancer cell line, query C[C@@H]1CC[C@H]2[C@@H](C)C(OCCN3C(=O)C(=O)c4cc(F)ccc43)O[C@@H]3O[C@@]4(C)CC[C@@H]1[C@]32OO4 (stereo partly drawn) [Hybrid 4b] . Return the value.
a: >3.7

q: # value lookup — system MCF-7 breast cancer cell line, readout SI, selectivity index, IC50(MCF-10A)/IC50(MCF-7), item CON=C1C(=O)N(CCOC2O[C@@H]3O[C@@]4(C)CC[C@H]5[C@H](C)CC[C@@H]([C@H]2C)[C@@]35OO4)c2ccccc21 (stereo partly drawn) [Hybrid 4d]
a: >3.5

q: Lab note: need SI, selectivity index, IC50(MCF-10A)/IC50(MCF-7) for COc1ccc2c(c1)C(=O)C(=O)N2CCOC1O[C@@H]2O[C@@]3(C)CC[C@H]4[C@H](C)CC[C@@H]([C@H]1C)[C@@]24OO3 (stereo partly drawn) [Hybrid 4c] on MCF-7 breast cancer cell line, anyone have it?
a: >2.9

q: Lab note: need SI, selectivity index, IC50(MCF-10A)/IC50(MCF-7) for CCON=C1C(=O)N(CCOC2O[C@@H]3O[C@@]4(C)CC[C@H]5[C@H](C)CC[C@@H]([C@H]2C)[C@@]35OO4)c2ccc(OC)cc21 (stereo partly drawn) [Hybrid 4i] on MCF-7 breast cancer cell line, anyone have it?
a: >1.4

q: Form field - read-out: SI, selectivity index, IC50(MCF-10A)/IC50(MCF-7); system: MCF-7 breast cancer cell line; submitted item: C[C@@H]1CC[C@H]2[C@@H](C)C(OCCN3C(=O)C(=O)c4ccccc43)O[C@@H]3O[C@@]4(C)CC[C@@H]1[C@]32OO4 (stereo partly drawn) [Hybrid 4a]
a: >7.9
